System: NCI-H522 lung
Assay: NCI tumour cell line growth inhibition, 48 h
Quick reference: TGI of the listed items.
API: value field is a number in µM; no unit string.

These solved cases illustrate the format of a correct answer.
COC(=O)n1c(CBr)c(Br)c2ccccc21
34.5
CCOC(=O)C1=C(c2ccccc2)N(c2ccc(OC)cc2)[C@]2(C#N)C(O)=C(Cl)C(Cl)=C(O)[C@]12C#N
46.6

Exercise: Would you kindly share the measured TGI for `O=C1O[C@]2(c3ccccc3)C(c3ccccc3)=C[C@]2(C(=O)c2ccccc2)C1=O` ?
Solution: 48.5

----------
Tested on: OVCAR-8 ovarian
Assay: NCI tumour cell line growth inhibition, 48 h
Measured Endpoint: TGI (µM)
API: value field is a number in µM; no unit string.

These solved cases illustrate the format of a correct answer.
COC1/C=C/C(C)C(C(C)C(OC)C(C)CCC(=O)C(C)C(C/C=C/N(C)C=O)OC)OC(=O)/C=C/C=C(\C)CC(OC)C(OC)C2=CC(=O)O[C@@H](C(C)C(OC)CC(OC)/C=C/C(C)C(O)C1)[C@H]2O (some centres undefined)
0.829
Cc1ccc(/C(=C/C=C(C#N)C#N)Sc2ccccn2)cc1
24.3
CCC[CH2][Sn]1([CH2]CCC)[O]C(=O)CN=Cc2ccccc2[O]1
1.39
Cc1cc(C)c2c(N)c3cccc(C)c3nc2n1
14.8

Now for another entry.
Exercise: Would you kindly share the measured TGI for `C=C(C)[C@@H]1CC[C@]2(C(=O)NCCNCCNCCN)CC[C@]3(C)[C@H](CC[C@@H]4[C@@]5(C)CCC(=O)C(C)(C)[C@@H]5CC[C@]43C)[C@@H]12` ?
Solution: 16.2
